# System: SK-MEL-5
# RUN DESCRIPTION: NCI tumour cell line growth inhibition, 48 h
Active and inactive are the calls of the source. Cut-off read from the data, not from the text of the source: active = GI50 up to about 1.1 µM and inactive = higher.
METRIC: GI50

Query: Find the recorded GI50 belonging to C=C(C)[C@@H]1CC[C@]2(C(=O)O)CC[C@]3(C)[C@H](CCC4[C@@]5(C)CC[C@H](C(=O)/C=C/c6ccc(O)c(O)c6)C(C)(C)[C@@H]5CC[C@]43C)[C@@H]12 (stereo partly drawn) and report it.
Result: 2.85 µM (inactive)

Query: Find the recorded GI50 belonging to CC1CN=C(N(C(=O)Nc2ccccc2)c2ccccc2)S1 (stereo not drawn) and report it.
Result: 16.7 µM (inactive)

Query: Find the recorded GI50 belonging to COc1ccc(-c2c3c(n(C4OC(CO)C(O)C(O)C4O)c(=S)c2C#N)CCC3)cc1 (stereo not drawn) and report it.
Result: 14.8 µM (inactive)

* * *

# System: ACHN
# RUN DESCRIPTION: NCI tumour cell line growth inhibition, 48 h
The source made the active and inactive calls. Cut-off read from the data, not from the text of the source: active = GI50 up to about 1.1 µM and inactive = higher.
METRIC: GI50

The cases that follow already have their GI50 on record.
{"COMPOUND": "CN(/N=C/c1ccc(C(=O)O)cc1)C1=NCCCCN1", "VALUE REPORTED": "> 100 µM (inactive)"}
{"COMPOUND": "NS(=O)(=O)c1cc2c(cc1Cl)NC(C(=O)c1cc(=O)c3ccc(O)cc3o1)=NS2(=O)=O", "VALUE REPORTED": "> 100 µM (inactive)"}
{"COMPOUND": "CN(C)c1ccc(/C=C2\\C[N+](C)(C)C/C(=C\\c3ccc(N(C)C)cc3)C2=O)cc1", "VALUE REPORTED": "70.5 µM (inactive)"}
{"COMPOUND": "C=C1C(=O)O[C@H]2C[C@@]3(C)[C@H](O)CCC(=C)[C@@H]3[C@@H](OC(C)=O)[C@H]12", "VALUE REPORTED": "3.53 µM (inactive)"}
{"COMPOUND": "Oc1cccc2cc(Cl)cnc12", "VALUE REPORTED": "8.95 µM (inactive)"}

Query: Find the recorded GI50 belonging to `Cc1[nH]c2ncn(/N=C/c3ccccc3O)c(=N)c2c1Cc1ccccc1` and report it.
Result: 54.2 µM (inactive)

Query: Find the recorded GI50 belonging to `Clc1ccc(-c2nnc(-c3nsc4ccccc34)o2)cc1` and report it.
Result: 25.1 µM (inactive)

Query: Find the recorded GI50 belonging to `CCN(CCCN(CC)C(=O)Nc1ccccc1)C(=O)Nc1ccccc1` and report it.
Result: > 100 µM (inactive)

Query: Find the recorded GI50 belonging to `Oc1c2cc(Cl)cc1COCc1cc(Cl)cc(c1O)COCc1cc(Cl)cc(c1O)COC2` and report it.
Result: > 100 µM (inactive)

Query: Find the recorded GI50 belonging to COc1ccc(C2N(NC(=O)c3ccncc3)C(=O)CS2(=O)=O)cc1F (centres undefined) and report it.
Result: > 100 µM (inactive)

Query: Find the recorded GI50 belonging to CC(C)(C)NCC(O)c1ccc(O)c(CO)n1 (centres undefined) and report it.
Result: > 100 µM (inactive)

* * *

# System: SF-295
# RUN DESCRIPTION: NCI tumour cell line growth inhibition, 48 h
The source made the active and inactive calls. Rule as the data show it: active = GI50 up to about 1.1 µM and inactive = higher.
Pick one: TRUE (active), FALSE (inactive)

{"COMPOUND": "O=C(NC1C/C(=N/O)c2c(Br)sc(Br)c21)C(F)(F)F (centres undefined)", "CLASS": "FALSE"}

Query: For Cc1ccc(S(=O)(=O)[N-]C2C(=O)c3ccccc3C(=O)C2[n+]2cccc(C(N)=O)c2)cc1 (centres undefined) , which call appears in the assay record?
Result: FALSE

Query: For CC(N/N=C(\S)N1CCN(c2ccccn2)CC1)c1cccc[n+]1[O-] (centres undefined) , which call appears in the assay record?
Result: FALSE

Query: For `Cc1ccc(CCC(=O)C(=O)O)s1` , which call appears in the assay record?
Result: FALSE
